// provenance: ChEMBL document CHEMBL3352089

The entries below are paired with their reported viability at 24 h, 1 µM.
- assay_name: Cytotoxicity against human HepG2 cells assessed as cell viability at 1 uM after 24 hrs by Cell-Titer Glo assay
- Type: cell-based
- measurement_conditions: read-out: Activity
quantity_measured: viability at 24 h, 1 µM

- smiles_entry: "COc1cc(-c2cnc(N)c(-c3cc(OC)c(OC)c(OC)c3)c2)ccc1O"
  quantity_measured: "viability at 24 h, 1 µM"
  measured_result: "> 75%"
- smiles_entry: "COc1cc(-c2cncc(-c3ccc(N4CCNCC4)cc3)c2)cc(OC)c1OC"
  quantity_measured: "viability at 24 h, 1 µM"
  measured_result: "> 75%"
- smiles_entry: "Nc1ncc(-c2cccc(N3CCNCC3)c2)cc1-c1ccnc2ccccc12"
  quantity_measured: "viability at 24 h, 1 µM"
  measured_result: "> 75%"
- smiles_entry: "COc1cc(-c2cc(-c3cccc(O)c3)cnc2N)cc(OC)c1OC"
  quantity_measured: "viability at 24 h, 1 µM"
  measured_result: "> 75%"
- smiles_entry: "CCCS(=O)(=O)Nc1ccc(F)c(C(=O)c2c[nH]c3ncc(-c4ccc(Cl)cc4)cc23)c1F"
  quantity_measured: "viability at 24 h, 1 µM"
  measured_result: "> 75%"
- smiles_entry: "CCN(CC)CCNC(=O)c1c(C)[nH]c(/C=C2\\C(=O)Nc3ccc(F)cc32)c1C"
  quantity_measured: "viability at 24 h, 1 µM"
  measured_result: "> 75%"
- smiles_entry: "COc1ccc(-c2cc(-c3ccc(N4CCNCC4)cc3)cnc2N)cc1"
  quantity_measured: "viability at 24 h, 1 µM"
  measured_result: "> 75%"
- smiles_entry: "Nc1ncc(-c2ccc(N3CCNCC3)cc2)cc1-c1cccc2ncccc12"
  quantity_measured: "viability at 24 h, 1 µM"
  measured_result: "> 75%"
- smiles_entry: "N#CC[C@H](C1CCCC1)n1cc(-c2ncnc3[nH]ccc23)cn1"
  quantity_measured: "viability at 24 h, 1 µM"
  measured_result: "> 75%"
- smiles_entry: "Cc1nc(Nc2ncc(C(=O)Nc3c(C)cccc3Cl)s2)cc(N2CCN(CCO)CC2)n1"
  quantity_measured: "viability at 24 h, 1 µM"
  measured_result: "> 75%"

###

- assay_name: Cytotoxicity against human HepG2 cells assessed as cell viability at 1 uM after 24 hrs by Cell-Titer Glo assay
- Type: cell-based
- measurement_conditions: read-out: Activity
The entries below are paired with their reported viability at 24 h, 1 µM.
quantity_measured: viability at 24 h, 1 µM

- compound: "c1cc(-c2cnn3cc(-c4ccc(N5CCNCC5)cc4)cnc23)c2cccnc2c1"
  quantity_measured: "viability at 24 h, 1 µM"
  measured_result: "> 75%"
- compound: "COc1cc(-c2cc(-c3ccc(N4CCNCC4)cc3)cnc2OC)cc(OC)c1OC"
  quantity_measured: "viability at 24 h, 1 µM"
  measured_result: "> 75%"
- compound: "Cc1ccc(Nc2nccc(N(C)c3ccc4c(C)n(C)nc4c3)n2)cc1S(N)(=O)=O [PAZOPANIB]"
  quantity_measured: "viability at 24 h, 1 µM"
  measured_result: "> 75%"
- compound: "COc1cc(-c2cc(-c3ccc(N4CCNCC4)cc3)cnc2N)cc(OC)c1OC"
  quantity_measured: "viability at 24 h, 1 µM"
  measured_result: "> 75%"
- compound: "COc1cc(-c2cc(-c3ccc(N4CCNCC4)cc3)cnc2C)cc(OC)c1OC"
  quantity_measured: "viability at 24 h, 1 µM"
  measured_result: "> 75%"
- compound: "Nc1ncc(-c2ccc(N3CCNCC3)cc2)cc1-c1ccc2c(c1)OCCO2"
  quantity_measured: "viability at 24 h, 1 µM"
  measured_result: "> 75%"
- compound: "COc1cc(-c2cnn3cc(-c4ccc(N5CCNCC5)cc4)cnc23)cc(OC)c1OC"
  quantity_measured: "viability at 24 h, 1 µM"
  measured_result: "> 75%"
- compound: "COc1cc(-c2cc(-c3ccc(O)cc3)cnc2N)cc(OC)c1OC"
  quantity_measured: "viability at 24 h, 1 µM"
  measured_result: "> 75%"
- compound: "COc1ccc(-c2cc(-c3ccc(N4CCNCC4)cc3)cnc2N)cc1OC"
  quantity_measured: "viability at 24 h, 1 µM"
  measured_result: "> 75%"
- compound: "COc1cc(-c2cc(-c3cccc(N4CCNCC4)c3)cnc2N)cc(OC)c1OC"
  quantity_measured: "viability at 24 h, 1 µM"
  measured_result: "> 75%"
